- subject-of-test: Thrombin and coagulation factor VII (Homo sapiens) (UniProt P00734+P08709)
- measurement-description: Selectivity for F7a/TF over F2a
- Type: protein assay
Could you please mark criterion met for values of Ratio Ki below 500 and criterion not met for values at or above it?

>  <molecule>
O=C(NCc1cccc(-c2cccc(-c3cc4c[nH]ccc-4n3)c2O)c1)Nc1ccc(C(=O)O)cc1

>  <discrete-label>
criterion not met

$$$$
>  <molecule>
O=C(NCc1cccc(-c2cccc(-c3cc4c[nH]ccc-4n3)c2O)c1)Nc1cc(F)cc(F)c1

>  <discrete-label>
criterion met

$$$$
>  <molecule>
O=C(NCc1cccc(-c2cccc(-c3cc4c[nH]ccc-4n3)c2O)c1)C(CO)c1ccccc1 (stereo not given)

>  <discrete-label>
criterion met

$$$$
>  <molecule>
O=C(NCc1cccc(-c2cccc(-c3cc4c[nH]ccc-4n3)c2O)c1)Nc1ccc(F)c(F)c1

>  <discrete-label>
criterion met

$$$$
>  <molecule>
O=C(NCc1cccc(-c2cccc(-c3cc4c[nH]ccc-4n3)c2O)c1)Nc1ccccc1F

>  <discrete-label>
criterion not met

$$$$

----------
- subject-of-test: Coagulation factor VII and X (Homo sapiens) (UniProt P00742+P08709)
- measurement-description: Selectivity for F7a/TF over F10a
- Assay type: protein assay

>  <compound>
O=C(NCc1cccc(-c2cccc(-c3cc4c[nH]ccc-4n3)c2O)c1)C(CO)c1ccccc1 (stereo not drawn)

>  <Ratio Ki>
136

$$$$
>  <compound>
O=C(NCc1cccc(-c2cccc(-c3cc4c[nH]ccc-4n3)c2O)c1)Nc1ccc(C(=O)O)cc1

>  <Ratio Ki>
966

$$$$
>  <compound>
COc1ccc(NC(=O)NCc2cccc(-c3cccc(-c4cc5c[nH]ccc-5n4)c3O)c2)c(OC)c1

>  <Ratio Ki>
2640

$$$$
>  <compound>
O=C(NCc1cccc(-c2cccc(-c3cc4c[nH]ccc-4n3)c2O)c1)Nc1ccc(F)c(F)c1

>  <Ratio Ki>
455

$$$$
>  <compound>
O=C(NCc1cccc(-c2cccc(-c3cc4c[nH]ccc-4n3)c2O)c1)Nc1ccccc1

>  <Ratio Ki>
1010

$$$$
>  <compound>
O=C(NCCc1cccs1)NCc1cccc(-c2cccc(-c3cc4c[nH]ccc-4n3)c2O)c1

>  <Ratio Ki>
429

$$$$
>  <compound>
O=C(NCc1cccc(-c2cccc(-c3cc4c[nH]ccc-4n3)c2O)c1)Nc1ccccc1Cl

>  <Ratio Ki>
2630

$$$$
>  <compound>
O=C(NCc1cccc(-c2cccc(-c3cc4c[nH]ccc-4n3)c2O)c1)Nc1cc(F)cc(F)c1

>  <Ratio Ki>
181

$$$$
>  <compound>
O=C(NCc1cccc(-c2cccc(-c3cc4c[nH]ccc-4n3)c2O)c1)Nc1cccnc1

>  <Ratio Ki>
635

$$$$
>  <compound>
CC(=O)c1ccc(NC(=O)NCc2cccc(-c3cccc(-c4cc5c[nH]ccc-5n4)c3O)c2)cc1

>  <Ratio Ki>
789

$$$$
>  <compound>
O=C(Cc1c(F)cccc1F)NCc1cccc(-c2cccc(-c3cc4c[nH]ccc-4n3)c2O)c1

>  <Ratio Ki>
10

$$$$
>  <compound>
O=C(NCc1cccc(-c2cccc(-c3cc4c[nH]ccc-4n3)c2O)c1)N1CCCC1

>  <Ratio Ki>
3

$$$$
>  <compound>
COc1ccccc1NC(=O)NCc1cccc(-c2cccc(-c3cc4c[nH]ccc-4n3)c2O)c1

>  <Ratio Ki>
1720

$$$$
>  <compound>
CC(=O)c1cccc(NC(=O)NCc2cccc(-c3cccc(-c4cc5c[nH]ccc-5n4)c3O)c2)c1

>  <Ratio Ki>
2170

$$$$
>  <compound>
O=C(NCc1cccc(-c2cccc(-c3cc4c[nH]ccc-4n3)c2O)c1)C(O)c1ccccc1 (stereo not drawn)

>  <Ratio Ki>
80

$$$$
>  <compound>
O=C(NCCc1ccccc1)NCc1cccc(-c2cccc(-c3cc4c[nH]ccc-4n3)c2O)c1

>  <Ratio Ki>
417

$$$$
>  <compound>
O=C(NCc1cccc(-c2cccc(-c3cc4c[nH]ccc-4n3)c2O)c1)Nc1cccc(F)c1

>  <Ratio Ki>
923

$$$$
>  <compound>
CCCCCNC(=O)NCc1cccc(-c2cccc(-c3cc4c[nH]ccc-4n3)c2O)c1

>  <Ratio Ki>
388

$$$$
